# System: Fusarium solani
# assayExplanation: Antifungal activity against Fusarium solani assessed as fungus growth at 200 mg/ml by agar dilution method relative to control
# Type: functional
Activity: recorded values
Answer in %, number only, no unit symbol.

Completed entries (count: 5):
lineNotation | Activity, %
Cc1cccc(C(=O)n2cc(C)n(-c3ccccc3C)c2=S)c1 | 100
Cc1ccc(C(=O)n2cc(C)n(-c3ccc(Cl)cc3)c2=S)cc1 | 85
COc1ccccc1C(=O)n1cc(C)n(-c2ccc(Cl)cc2)c1=S | 100
Cc1ccc(C(=O)n2cc(C)n(-c3cccc(Cl)c3)c2=S)cc1 | 95
COc1ccccc1-n1c(C)cn(C(=O)c2ccc(C)cc2)c1=S | 100

get_value(item= Cc1cccc(C(=O)n2cc(C)n(-c3ccc(Cl)cc3)c2=S)c1 , readout=Activity) returns 100

get_value(item= Cc1ccc(C(=O)n2cc(C)n(-c3ccc(Br)cc3)c2=S)cc1 , readout=Activity) returns 68

get_value(item= COc1cccc(-n2c(C)cn(C(=O)c3cccc(C)c3)c2=S)c1 , readout=Activity) returns 100

###

# Tested on: Pseudomonas aeruginosa
# assayExplanation: Antibacterial activity against Pseudomonas aeruginosa at 2 mg/ml by agar well diffusion method
# Assay type: functional
# runParameters: read-out: DIZ
zone of inhibition at 2000 µg/mL: recorded values
Answer in mm, number only, no unit symbol.

lineNotation | subjectOfTest | zone of inhibition at 2000 µg/mL, mm
COc1ccccc1C(=O)n1cc(C)n(-c2ccc(Cl)cc2)c1=S | Pseudomonas aeruginosa | 13

get_value(item= Cc1ccc(C(=O)n2cc(C)n(-c3cccc(Cl)c3)c2=S)cc1 , readout=zone of inhibition at 2000 µg/mL) returns 16

get_value(item= Cc1ccc(C(=O)n2cc(C)n(-c3ccc(Br)cc3)c2=S)cc1 , readout=zone of inhibition at 2000 µg/mL) returns 13

###

# System: Sitophilus oryzae
# assayExplanation: Insecticidal activity against Sitophilus oryzae (rice weevil) assessed as mortality at 200 ug/ml
# Format: functional
The label depends only on Activity: condition met if it is at least 20%, condition not met if it is smaller.

The examples below pair each entry with its known result.
lineNotation | categoryLabel
Cc1cccc(C(=O)n2cc(C)n(-c3ccc(Cl)cc3)c2=S)c1 | condition met
Cc1ccc(C(=O)n2cc(C)n(-c3ccc(Br)cc3)c2=S)cc1 | condition met
Cc1ccc(C(=O)n2cc(C)n(-c3ccccc3Cl)c2=S)cc1 | condition met
Cc1ccc(C(=O)n2cc(C)n(-c3ccc(Cl)cc3)c2=S)cc1 | condition not met
Cc1cccc(C(=O)n2cc(C)n(-c3cccc(Cl)c3)c2=S)c1 | condition met
Cc1cccc(C(=O)n2cc(C)n(-c3ccc(Br)cc3)c2=S)c1 | condition not met
COc1ccccc1C(=O)n1cc(C)n(-c2ccc(Cl)cc2)c1=S | condition met
Cc1cccc(C(=O)n2cc(C)n(-c3ccccc3Cl)c2=S)c1 | condition not met

Next compound, please.
Reported Activity at or above 20%? Cc1ccc(C(=O)n2cc(C)n(-c3cccc(Cl)c3)c2=S)cc1
condition not met

###

# Test system: Staphylococcus aureus
# assayExplanation: Antibacterial activity against Staphylococcus aureus at 2 mg/ml by agar well diffusion method
# Type: functional
# runParameters: read-out: DIZ
The label depends only on zone of inhibition at 2000 µg/mL: 1 (yes) if it is at least 20 mm, 0 (no) if it is smaller.

Reported zone of inhibition at 2000 µg/mL at or above 20 mm? Cc1cccc(C(=O)n2cc(C)n(-c3cccc(Cl)c3)c2=S)c1
0 (no)

Reported zone of inhibition at 2000 µg/mL at or above 20 mm? Cc1ccc(C(=O)n2cc(C)n(-c3ccc(Br)cc3)c2=S)cc1
0 (no)

Reported zone of inhibition at 2000 µg/mL at or above 20 mm? Cc1ccc(C(=O)n2cc(C)n(-c3cccc(Cl)c3)c2=S)cc1
0 (no)

Reported zone of inhibition at 2000 µg/mL at or above 20 mm? COc1ccccc1C(=O)n1cc(C)n(-c2ccc(Cl)cc2)c1=S
0 (no)

Reported zone of inhibition at 2000 µg/mL at or above 20 mm? Cc1ccc(C(=O)n2cc(C)n(-c3cccc(C)c3)c2=S)cc1
0 (no)

Reported zone of inhibition at 2000 µg/mL at or above 20 mm? Cc1cccc(C(=O)n2cc(C)n(-c3ccccc3Cl)c2=S)c1
0 (no)

Reported zone of inhibition at 2000 µg/mL at or above 20 mm? Cc1ccc(C(=O)n2cc(C)n(-c3ccccc3C)c2=S)cc1
1 (yes)

Reported zone of inhibition at 2000 µg/mL at or above 20 mm? Cc1ccc(C(=O)n2cc(C)n(-c3ccccc3Cl)c2=S)cc1
1 (yes)

Reported zone of inhibition at 2000 µg/mL at or above 20 mm? CC1(C)S[C@@H]2[C@H](NC(=O)[C@H](N)c3ccc(O)cc3)C(=O)N2[C@H]1C(=O)O
1 (yes)

// data source = ChEMBL document CHEMBL3046622
